Provenance of the data: ChEMBL document CHEMBL5260847

- System: MCF7
- METHOD: Cytotoxicity against human MCF7 cells assessed as reduction in cell viability measured after 48 hrs by SRB assay
- Format: functional, cell-based
- REPORTED CONDITIONS: MCF7, 48 h
READOUT TYPE: IC50 (nM)
Respond with the bare value in nM.

I would be grateful if you could share the reported IC50 for `COc1ccc(C(=O)/C=C/c2nccc3c2[nH]c2ccccc23)cc1OC` .
1250

###

- Tested on: K562
- METHOD: Cytotoxicity against human K562 cells assessed as reduction in cell viability incubated for 72 hrs by MTT assay
- Type: functional, cell-based
- REPORTED CONDITIONS: K562, 72 h
pIC50: −log10 of the molar value.
READOUT TYPE: pIC50

I would be grateful if you could share the reported pIC50 for `COc1cccc2c1C(=O)c1c(O)c3c(c(O)c1C2=O)C[C@@](O)(C(=O)CO)C[C@@H]3O[C@H]1C[C@H](N)[C@H](O)[C@H](C)O1` .
< 3.78

###

- Test system: HeLa
- METHOD: Anticancer activity against human HeLa cells assessed as inhibition of cell growth
- Format: functional, cell-based
READOUT TYPE: IC50 (µM)
Respond with the bare value in µM.

I would be grateful if you could share the reported IC50 for `O=C1/C(=N\O)c2ccccc2N1CCOCCN1C(=O)/C(=N/O)c2ccccc21` .
6.23

###

- METHOD: Cytotoxicity against human HUVEC cells assessed as reduction in cell viability incubated for 2 hrs by MTT assay
- Assay type: toxicity, cell-based
READOUT TYPE: IC50 at 2 h

I would be grateful if you could share the reported IC50 at 2 h for `COc1ccc2[nH]cc(C(=O)C(=O)N[C@@H]3c4cc5c(cc4[C@@H](c4cc(OC)c(OC)c(OC)c4)[C@H]4C(=O)OC[C@@H]43)OCO5)c2c1` .
15.1 µM

###

- Tested on: K562
- METHOD: Antiproliferative activity against human K562 cells assessed as reduction in cell growth measured after 24 hrs by CCK-8 assay
- Format: functional, cell-based
- REPORTED CONDITIONS: K562, 24 h
READOUT TYPE: IC50

I would be grateful if you could share the reported IC50 for `COc1cc([C@@H]2c3cc4c(cc3[C@H](OC(=O)c3ccc5cc[nH]c5c3)[C@H]3COC(=O)[C@H]23)OCO4)cc(OC)c1OC` .
43 nM

###

- Test system: HeLa
- METHOD: Antiproliferative activity against human Hela cells assessed as reduction in cell viability measured after 48 hrs by MTT assay
- Type: functional, cell-based
pIC50: −log10 of the molar value.
READOUT TYPE: pIC50

I would be grateful if you could share the reported pIC50 for `O=Cc1c[nH]c2ccccc12` .
< 4.00

###

- Test system: HCT-116
- METHOD: Antiproliferative activity against multi-drug - resistant human HCT-116 cells assessed as reduction in cell viability
- Assay type: functional, cell-based
READOUT TYPE: pIC50
// scale note: pIC50 = -log10(conc_M); give the bare number

State its pIC50 on HCT-116: `[O-][n+]1onc2c3cc[nH]c3ccc21`
5.69

###

- Tested on: A549
- METHOD: Antiproliferative activity against drug-sensitive human A549 cells assessed as reduction in cell viability by MTT assay
- Format: functional, cell-based
READOUT TYPE: IC50 (µM)
Respond with the bare value in µM.

State its IC50 on A549: `O=C1Nc2ccc(Cl)cc2/C1=N/N=C/c1nc(-c2ccccc2)cs1`
10.1
